Cited source for all entries: patent US20240150293A1

Test system: AMO-1 multiple myeloma xenografts
ASSAY: Anti-tumor activity in vivo (Example D)
Parameters: species or system SCID mice
PROTOCOL CONDITIONS: 60 mpk per os once a week for 2 weeks
RESULT TYPE: % TGI (d9) (%)
Express the result in % but write the number alone.

Examples with their reported % TGI (d9) follow.
COCc1ccc2c(c1)[C@]1(CC[C@@](Nc3cccc(Cl)c3)(C(=O)O)CC1)[C@@H](C[C@@H](C)COc1ccnc3c1[C@H](C)CCC3)C2 :: 121
COCCOc1ccc2c(c1)[C@]1(CC[C@@](Nc3cccc(Cl)c3)(C(=O)O)CC1)[C@@H](C[C@@H](C)COc1ccnc3c1[C@H](C)CCC3)C2 :: 70.2
C[C@@H](COc1ccnc2c1[C@H](C)CCC2)C[C@H]1Cc2cc3c(cc2[C@]12CC[C@@](Nc1cccc(Cl)c1)(C(=O)O)CC2)OCCO3 :: 129.2
COc1ccc2c(c1)[C@]1(CC[C@@](Nc3cccc(Cl)c3)(C(=O)O)CC1)[C@@H](C[C@@H](C)COc1ccnc3c1[C@H](C)CCC3)C2 :: 107.8
CCOc1ccc2c(c1)[C@]1(CC[C@@](Nc3cccc(Cl)c3)(C(=O)O)CC1)[C@@H](C[C@@H](C)COc1ccnc3c1[C@H](C)CCC3)C2 :: 112
C[C@@H](COc1ccnc2c1[C@H](C)CCC2)CN1Cc2cc(F)ccc2[C@]12CC[C@@](Nc1cccc(Cl)c1)(C(=O)O)CC2 :: 7.4
C[C@@H](COc1ccnc2c1[C@H](C)CCC2)CN1Cc2cc(F)ccc2[C@]12CC[C@@](Nc1ccc(F)c(Cl)c1)(C(=O)O)CC2 :: 25.8
C[C@@H](COc1ccnc2c1[C@H](C)CCC2)C[C@H]1Cc2cc3c(cc2[C@]12CC[C@@](Nc1cccc(Cl)c1)(C(=O)O)CC2)OCO3 :: 119.8

Request: % TGI (d9), test system AMO-1 multiple myeloma xenografts, entry Cc1cc2c(cc1C)[C@]1(CC[C@@](Nc3cccc(Cl)c3)(C(=O)O)CC1)[C@@H](C[C@@H](C)COc1ccnc3c1[C@H](C)CCC3)C2
95.2

I'm curious: which % TGI (d9) was measured for COc1cc2c(cc1Cl)C[C@H](C[C@@H](C)COc1ccnc3c1[C@H](C)CCC3)[C@]21CC[C@](Nc2cccc(Cl)c2)(C(=O)O)CC1 tested on AMO-1 multiple myeloma xenografts?
18.7

Test system AMO-1 multiple myeloma xenografts; read-out % TGI (d9); what value for CC(C)Oc1ccc2c(c1)[C@]1(CC[C@@](Nc3cccc(Cl)c3)(C(=O)O)CC1)[C@@H](C[C@@H](C)COc1ccnc3c1[C@H](C)CCC3)C2 ?
98.9

Recorded % TGI (d9) for C[C@@H](COc1ccnc2c1[C@H](C)CCC2)C[C@H]1Cc2cc3c(cc2[C@]12CC[C@@](Nc1ccc(F)c(Cl)c1)(C(=O)O)CC2)OCO3 with AMO-1 multiple myeloma xenografts, please?
128.3

====

TGT: Mcl-1 protein (UniProtKB Q07820) (Homo sapiens (Human), UniProt Q07820)
Sequence (Q07820 whole entry): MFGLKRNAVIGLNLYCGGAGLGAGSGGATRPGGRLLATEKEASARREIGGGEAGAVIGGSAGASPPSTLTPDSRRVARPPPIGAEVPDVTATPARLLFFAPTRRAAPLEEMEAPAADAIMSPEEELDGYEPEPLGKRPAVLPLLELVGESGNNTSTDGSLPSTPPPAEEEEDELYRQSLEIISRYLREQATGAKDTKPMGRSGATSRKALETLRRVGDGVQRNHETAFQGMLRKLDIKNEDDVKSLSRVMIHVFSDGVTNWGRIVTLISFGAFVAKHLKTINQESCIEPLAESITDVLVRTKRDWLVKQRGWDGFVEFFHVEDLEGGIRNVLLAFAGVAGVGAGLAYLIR
ASSAY: Inhibition of Mcl-1 by the fluorescence polarisation assay (Example A, Method A)
PROTOCOL CONDITIONS: fluorescence polarization assay
Experimental: The relative binding potency of each compound was determined via Fluorescence Polarisation (FP). The method utilised a Fluorescein labelled ligand (Fluorescein-βAla-Ahx-A-REIGAQLRRMADDLNAQY-OH; MW 2,765) which binds to the Mcl-1 protein (such that Mcl-1 corresponds to the UniProtKB® primary accession number: Q07820) leading to an increased anisotropy measured in milli-polarisation (mP) units using a reader. […]
# maps each entry to its Ki
State the answer as a number, implicitly in nM.

COc1ccc(C)c(C2Cc3ccccc3[C@]23CC[C@@](Nc2cccc(Cl)c2)(C(=O)O)CC3)c1 (single isomer, unassigned) [Example 271] :: 12500
Cn1cc(C2Cc3ccccc3[C@]23CC[C@@](Nc2cccc(Br)c2)(C(=O)O)CC3)cn1 (stereo partly drawn) [Example 212] :: 9470
O=C(O)[C@]1(Nc2cccc(Cl)c2)CC[C@@]2(CC1)c1ccccc1CC2c1ccc(Oc2ccncc2)cc1 (single isomer, unassigned) [Example 364] :: 459
CC(C)C(COc1ccncc1)CC1Cc2ccccc2[C@]12CC[C@@](Nc1cccc(Cl)c1)(C(=O)O)CC2 (single isomer, unassigned) [Example 534] :: 1520

Given the entry COc1ccc(C2=Cc3ccccc3[C@]23CC[C@@](Nc2cccc(Cl)c2)(C(=O)O)CC3)c(C)c1 [Example 229] , what Ki was observed with Mcl-1 protein (UniProtKB Q07820) (Homo sapiens (Human), UniProt Q07820)?
1340

Which Ki is reported with Mcl-1 protein (UniProtKB Q07820) (Homo sapiens (Human), UniProt Q07820) for this entry: COc1cccc(Cl)c1C1Cc2ccccc2[C@]12CC[C@@](Nc1cccc(Cl)c1)(C(=O)O)CC2 (mixture of isomers) [Example 283] ?
4160
